- condition: in chloroform, 298.2 K
measure name: solubility (mole fraction)
// keep it numeric: no unit symbol after the value

## Task Report solubility (mole fraction) for CC1(C)O[C@H]2CC(=O)OC[C@]23[C@H]2CC[C@@]4(C)[C@H](c5ccoc5)OC(=O)[C@H]5O[C@]54[C@]2(C)C(=O)C[C@@H]13 please.
## Result 0.00458

* * *

- condition: in THF, 293.2 K
measure name: solubility (mole fraction)
Answer field: number only, no words.

## Task Sample CC1(C)O[C@H]2CC(=O)OC[C@]23[C@H]2CC[C@@]4(C)[C@H](c5ccoc5)OC(=O)[C@H]5O[C@]54[C@]2(C)C(=O)C[C@@H]13 — what was its solubility (mole fraction)?
## Result 0.0028
